# System: A549/ATCC NSCLC
# Assay Summary: NCI-60 one-dose screen, 48 h (100 = growth as untreated, 0 = no growth, -100 = all killed)
# Condition Label: 10 µM
This is part of a sample that, as a whole, favours compounds with a hit. Of some 83,000 tested, about 20% had one in any assay.
Measurement Type: growth (%)
Lab book: enter the figure in %, no units written.

Examples with answers:
Molecule	Unit	growth
CCN1/C(=C/C=C/C=C/c2sc3ccccc3[n+]2CC)Sc2ccccc21	%	-64.5
O=C(/C=C/c1cccnc1)c1ccccc1	%	99.3
CCCCCCCCCCCC[N+](C)(C)Cc1ccccc1	%	70.9

Input line: Which growth value is on record for O=c1ccn(C2CC(O)C(COC(c3ccccc3)(c3ccccc3)c3ccccc3)O2)c(=O)[nH]1 (stereo unspecified) ?
Output line: 74.8

Input line: Please do the same for CCCCCCCCCCCCCCCCCCOCC(COP(=O)([O-])OCC[N+](C)(C)C)OC (stereo unspecified) as well.
Output line: 97.5

Input line: Please do the same for "Clc1ccc(/C=C/c2ccccn2)c(Cl)c1" as well.
Output line: 90

These measurements were taken from PubChem BioAssay (NCI).
